assay: ABTS radical scavenging assay
Assay type: biochemical
experimental context: read-out: ABTS IC50; concentration to scavenge 50% of radicals, mean ± SD
Mark each entry label 1 if its IC50 sits below 1000 µM, and label 0 for all others.

These recorded examples may help you get a feel for the data.
compound	classification
CC1(C)C2CC[C@]1(C)C(=O)/C2=C/c1cc2ccccc2o1 [Compound 9]	label 1
CC1(C)C2CC[C@]1(C)C(=O)/C2=C/c1ccoc1 [Compound 7]	label 0
O=C1O[C@H]([C@@H](O)CO)C(O)=C1O [AA, Ascorbic acid, reference compound]	label 1

Q: Please check: IC50 for CC1(C)C2CC[C@]1(C)C(=O)/C2=C/c1ccco1 [Compound 3] , strictly under 1000 µM or not?
A: label 1

====

assay: Hemolysis assay
Type: cell-based, human
experimental context: human, washed human red blood cells, Hemolysis (%), 300 µg/mL, 30 min, 37 °C
measure name: hemolysis at 30 min, 300 µg/mL (%)
Answers are plain numbers, in %.

// below: answered molecules
molecule	hemolysis at 30 min, 300 µg/mL / %
CC1(C)C2CC[C@]1(C)C(=O)/C2=C/c1cc2ccccc2o1 [Compound 9]	13.4
CC1(C)C2CC[C@@]1(C)C(=O)/C2=C/c1cccs1 [Compound 6]	29
CC1(C)C2CC[C@]1(C)C(=O)/C2=C/c1ccco1 [Compound 3]	35.3

Record hemolysis at 30 min, 300 µg/mL for all entries; do not skip any.
1. CC1(C)C2CC[C@@]1(C)C(=O)/C2=C/c1ccsc1 [Compound 12]
2. CC1(C)C2CC[C@@]1(C)C(=O)/C2=C/c1ccoc1 [Compound 8]
3. CC1(C)C2CC[C@@]1(C)C(=O)/C2=C/c1cc2ccccc2o1 [Compound 10]
4. CC1(C)C2CC[C@]1(C)C(=O)/C2=C/c1ccoc1 [Compound 7]

A:
1: 12.5; 2: 12.2; 3: 8.05; 4: 5.97

====

assay: Hemolysis assay
Assay type: cell-based, human
experimental context: human, washed human red blood cells, Hemolysis (%), 300 µg/mL, 30 min, 37 °C
Give measured hemolysis at 30 min, 300 µg/mL for each item. Keep answers brief.
Answers are plain numbers, in %.

compound	measure name	test result
CC12CCC(CC1=O)C2(C)C (stereo not shown) [Compound 1, camphor, reference compound]	hemolysis at 30 min, 300 µg/mL	10.1
CC1(C)C2CC[C@@]1(C)C(=O)/C2=C/c1ccco1 [Compound 4]	hemolysis at 30 min, 300 µg/mL	49.7
CC1(C)C2CC[C@]1(C)C(=O)/C2=C/c1cccs1 [Compound 5]	hemolysis at 30 min, 300 µg/mL	13.8

The record that follows has no hemolysis at 30 min, 300 µg/mL shown yet.
Recorded result, CC1(C)C2CC[C@]1(C)C(=O)/C2=C/c1ccsc1 [Compound 11] , hemolysis at 30 min, 300 µg/mL: 13.2
